# System: A498 renal
# Assay Info: NCI-60 one-dose screen, 48 h (100 = growth as untreated, 0 = no growth, -100 = all killed)
# Condition Info: 10 µM
# Method: Growth inhibition of the A498 human tumor cell line is measured as a screen for anti-cancer activity. Cells are grown in 96 well plates and exposed to the test compound for 48 hours. Compounds are tested at a single concentration, which is 10^-5 M for most compounds. The reported endpoint is percent growth (GI% or GIPRCNT), where numbers from 0 - 100% represent growth inhibition, and numbers from -100% - 0 represent cell death. For example, a value of 40 represents 60% growth inhibition. […]
This is part of a sample that, as a whole, favours compounds with a hit. Of some 83,000 tested, about 20% had one in any assay.
// boundary case: growth equal to 40% maps to n; strictly smaller maps to y

Sample answers from the record:
Compound: COc1ccc2c(c1OC)O/C(=C\c1ncc([N+](=O)[O-])n1C)C2=O
Assigned Category: n

Compound: COc1ccc2c(c1)nc(N)c1c3cccnc3cn21
Assigned Category: y

Compound: Cc1cc(C)c(CCc2cc(C)c(C)cc2C)cc1C
Assigned Category: n

Hello, is growth of the following compound strictly smaller than 40%? COc1ccc(-c2nn(-c3cccc(NC(=O)Nc4ccccc4)c3)cc2-c2ccncc2)cc1Cl
y

State whether 40% exceeds growth recorded for COc1ccc2c(c1)sc1nc(-c3ccccc3)c(-c3ccsc3)n12 .
y

Just wondering, is growth of O=C(Nc1nc2ccc(F)cc2s1)c1cc(-c2ccc(F)cc2)n2nc(-c3ccccc3)cc2n1 below 40%?
n

Is growth strictly under 40% for the entry CC[C@H]1CCC/C=C/[C@@H]2C[C@H](O)C[C@H]2[C@H](O)/C=C/C(=O)O1 ?
y

Consider O=C(N/N=C/c1cc2ccccc2c2ccccc12)c1cc(O)c(O)c(O)c1 . Does its growth lie strictly below 40%?
n

Does this compound meet the criterion growth < 40%? CCc1ccc2c(c1)N(CCO)C1=C(C(=O)OC1)C2c1ccccc1 (stereo unspecified)
n

Is growth strictly under 40% for the entry COc1cc(/C=C2\Oc3cc(OCC(=O)c4ccccc4)ccc3C2=O)cc(OC)c1OC ?
n

###

# Test system: OVCAR-5 ovarian
# Assay Info: NCI-60 one-dose screen, 48 h (100 = growth as untreated, 0 = no growth, -100 = all killed)
# Condition Info: 10 µM
The panel holds about 83,000 compounds, 20% with a hit somewhere; the sample as a whole holds those more often.
Please respond with reported growth for every item in the list.
Give bare numbers, in %.

Consider the worked cases shown below.
Compound: CCC(=O)N1C/C(=C/c2ccc(Cl)cc2)C(=O)/C(=C/c2ccc(Cl)cc2)C1
Target Desc: OVCAR-5 ovarian
growth [%]: 2.37

Compound: CC(C)C[C@H](NC(=O)[C@H](Cc1cccc2ccccc12)NS(=O)(=O)c1cccc2cccnc12)B(O)O
Target Desc: OVCAR-5 ovarian
growth [%]: -57.6

Compound: O=C1/C(=C\c2ccc(Cl)cc2)CN(C(=S)Nc2ccccc2)C/C1=C\c1ccc(Cl)cc1
Target Desc: OVCAR-5 ovarian
growth [%]: -74.1

Compound: CN1CCC(CNc2cc(C3(C(=O)Nc4cc(C(=O)Nc5ccc(Cl)c(C(F)(F)F)c5)ccc4F)CC3)ncn2)CC1
Target Desc: OVCAR-5 ovarian
growth [%]: 71.6

Compound: COc1cc(/C=C\c2cc(OC)c(OC)c(OC)c2)cc(NS(=O)(=O)c2ccc(Cl)cc2)c1OC
Target Desc: OVCAR-5 ovarian
growth [%]: 45

I need growth for every entry listed below, if you could help.
1. COc1cc(CNc2ccccc2C(=O)N2CCN(C(=O)c3cc(-c4cc(OC)c(OC)c(OC)c4)n4nc(-c5ccccc5)cc4n3)CC2)cc(OC)c1OC
2. CC(=O)c1nc2ccccc2n1CCNC(N)=O
3. CN(C)Cc1cn(-c2ncc(-c3ccc(C(F)(F)F)cc3)c(NC3CCCCCC3)n2)nn1
4. COc1ccc(OC)c(/C=C/c2nnc(Nc3ccc(Cl)cc3)o2)c1
5. CC(C)=CCc1cc(O)cc2c1OC(C=C(C)C)C1=C2C(=O)C2=C(C1=O)S(=O)(=O)CCN2 (stereo not given)

[88.1, 97.5, 110, 103, 152]
